# tested.target: Tyrosyl-tRNA synthetase, putative (Trypanosoma cruzi (strain CL Brener))
# assay.protocol: Trypanosoma cruzi tyrosyl tRNA synthetase (TcYRS) SOP
# Format: functional
# Parameters: scale not given: direction of the effect not stated beside the values
# experimental.parameters: 30 µM
reported.property: Percent Effect (%)

| molecule | reported.property | experimental.result |
| --- | --- | --- |
| COCC(=O)N1CCN(C(=O)c2scnc2C)CC1 | Percent Effect | 10.4 |
| CCn1nc2c(cc1=O)CN(Cc1nc(N)c3ccccc3n1)CC2 | Percent Effect | 12.5 |
| CC(=O)N1CCCN(C(=O)NCCc2cc(Cl)cc(Cl)c2)CC1 | Percent Effect | 2.53 |
| CCc1nc(CCNC(=O)Nc2cc(C(N)=O)sc2C)cs1 | Percent Effect | -3.7 |
| CNC(=O)[C@@]12CCC3(CCN(S(C)(=O)=O)CC3)[C@@H]1CN(S(C)(=O)=O)C2 | Percent Effect | 11.1 |
| Cn1cnc(S(=O)(=O)N2CCCC2)c1Cl | Percent Effect | 10.3 |
| Cn1cc(CN2CC[C@H]3O[C@H](C(=O)NCc4ccco4)CC[C@H]32)cn1 | Percent Effect | 12.5 |
| CN(Cc1ccccc1O)C(=O)NC1CCCN(c2ncccn2)C1 (stereo not drawn) | Percent Effect | 7.32 |
| N#Cc1ccc(N2CCN(C(=O)c3cc(C4CC4)[nH]n3)CC2)c(F)c1 | Percent Effect | 23.2 |
| CCC(C)N(C)CCNC(=O)NCc1cccc(-n2cncn2)c1 (stereo not drawn) | Percent Effect | 6.17 |
| COc1cc(N2C[C@H]3OCC[C@H]3[C@H](C(=O)NC3CC3)C2)ncn1 | Percent Effect | 6.17 |
| CCn1ccnc1-c1nc2cc(S(=O)(=O)N3CCCC3)ccc2n1C | Percent Effect | 10 |
| c1ccc2c(N3CCCC3Cn3cccn3)ncnc2c1 (stereo not drawn) | Percent Effect | 28.1 |
| c1cnc(NCc2noc3c2CN(C2CCOCC2)CC3)nc1 | Percent Effect | 22.5 |
| N#Cc1ccc(CN2CCN(C(=O)c3cc(C4CC4)[nH]n3)CC2)cc1 | Percent Effect | 18.3 |
| CS(=O)(=O)N1CCCC12CCCN(S(=O)(=O)c1ccc(F)cc1)C2 (stereo not drawn) | Percent Effect | 6.17 |
| Cn1c(Cn2cccn2)nnc1C1CCCN(c2ccncc2)C1 (stereo not drawn) | Percent Effect | 19.5 |
| Cc1ccc(CN2Cc3c(C(=O)N(C)C)nn(C)c3C2)s1 | Percent Effect | 11.1 |
| CC(C)Cc1noc(CN2CCN(CCOc3ccc(Cl)cc3)CC2)n1 | Percent Effect | 19.5 |
| COc1cccc(S(=O)(=O)CCN2CCC3(CC2)OCCO3)c1 | Percent Effect | 6.17 |
| Cc1csc2c(N3CCC(NCCCc4ccncc4)CC3)ncnc12 | Percent Effect | 11.1 |
| COc1c(CNCc2cccc(Cn3ccnc3)c2)c(C)nn1C | Percent Effect | 18.5 |
| CCc1ncc(CN(C)C(=O)Nc2cccnc2N2CCCC2)s1 | Percent Effect | 13.6 |
